Each record here notes measured A450.
target: T1, Human Id1: Histidine (human, UniProt P41134 1-155, limits assumed)
T1 construct: Fusion protein made in E. coli from vector pGW07; also called h-Id1: his; not shown: His tag
T1 sequence (looked up): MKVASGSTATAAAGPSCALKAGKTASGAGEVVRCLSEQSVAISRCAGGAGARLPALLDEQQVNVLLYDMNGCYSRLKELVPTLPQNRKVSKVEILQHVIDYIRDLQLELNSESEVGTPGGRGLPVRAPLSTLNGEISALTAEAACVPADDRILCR
test name: ELISA, Ab 0.250 µg/ml
readout name: A450 (A450)

[[record]]
binder = "rabbit monoclonal anti-mouse/human Id3, clone #BCH-4/#6-1 (antibody, V domains shown, Rabbit IgG from a rabbit hybridoma; also called m/h Id3 MoAb 6-1) VH: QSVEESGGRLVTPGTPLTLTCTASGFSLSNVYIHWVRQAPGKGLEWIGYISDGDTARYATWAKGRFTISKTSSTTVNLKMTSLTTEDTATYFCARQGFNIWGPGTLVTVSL VL: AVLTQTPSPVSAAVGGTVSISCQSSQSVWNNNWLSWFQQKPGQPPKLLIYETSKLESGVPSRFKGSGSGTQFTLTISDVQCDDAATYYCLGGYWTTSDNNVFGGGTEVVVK"
observed = 0.051

[[record]]
binder = "rabbit monoclonal anti-mouse/human Id3, clone #BCH-4/#16-1 (antibody, V domains shown, Rabbit IgG from a rabbit hybridoma; also called m/h Id3 MoAb 16-1) VH: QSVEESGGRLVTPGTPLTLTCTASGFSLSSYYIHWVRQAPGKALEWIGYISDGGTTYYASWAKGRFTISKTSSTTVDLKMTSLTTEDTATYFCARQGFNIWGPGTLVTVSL VL: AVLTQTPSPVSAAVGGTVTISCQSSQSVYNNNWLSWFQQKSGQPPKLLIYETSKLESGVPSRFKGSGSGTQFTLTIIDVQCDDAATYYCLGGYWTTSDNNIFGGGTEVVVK"
observed = 0.045

